Parameter growth: see the listing below.
System: HOP-62 NSCLC
Assay: NCI-60 one-dose screen, 48 h (100 = growth as untreated, 0 = no growth, -100 = all killed)
Settings: 10 µM unless noted
Protocol: Growth inhibition of the HOP-62 human Non-Small Cell Lung tumor cell line is measured as a screen for anti-cancer activity. Cells are grown in 96 well plates and exposed to the test compound for 48 hours. Compounds are tested at a single concentration, which is 10^-5 M for most compounds. The reported endpoint is percent growth (GI% or GIPRCNT), where numbers from 0 - 100% represent growth inhibition, and numbers from -100% - 0 represent cell death. […]
This is part of a sample that, as a whole, favours compounds with a hit. Of some 83,000 tested, about 20% had one in any assay. Calls of active or inactive are those of the source. The calls were made as follows: active = growth percent below 10; inactive = the rest.
ENDPOINT: growth

compound="CO[C@H]1/C=C/O[C@@]2(C)Oc3c(C)c(O)c4c(O)c(c(/C=N/N5C(C)CN(Cc6ccc(C#N)cc6)CC5C)c(O)c4c3C2=O)NC(=O)/C(C)=C\\C=C\\[C@H](C)[C@H](O)[C@@H](C)[C@@H](O)[C@@H](C)[C@H](OC(C)=O)[C@@H]1C (stereo partly drawn)" assayed_target="HOP-62 NSCLC" result="43.8% (inactive)"
compound=O=C(NC1CCCCC1)c1ccc(Nc2ncnc3c2cnn3-c2ccccc2)cc1 assayed_target="HOP-62 NSCLC" result="-66.5% (active)"
compound=O=C(CSc1ncc(-c2ccccc2)n1-c1ccccc1)Nc1ccc(-c2nc3ccccc3s2)cc1 assayed_target="HOP-62 NSCLC" result="73.1% (inactive)"
compound=C/C(=C\CCc1ccsc1)CC/C=C(\C)CCCN1CCSCC1 assayed_target="HOP-62 NSCLC" result="99% (inactive)"
compound=COc1ccc(C(=O)/C=C/c2ccc(C)cc2)cc1OC assayed_target="HOP-62 NSCLC" result="79% (inactive)"
compound="CS(=O)(=O)N1CCN(Cc2cc3nc(-c4cccc5[nH]ncc45)nc(N4CCOCC4)c3s2)CC1 (tested in a mixture with another compound)" assayed_target="HOP-62 NSCLC" result="23.6% (inactive)"
compound=O=C1OC2(c3ccccc31)c1ccccc1-c1ccccc12 assayed_target="HOP-62 NSCLC" result="93.8% (inactive)"
compound=O=C(Oc1cccc2ccccc12)c1ccccc1C(=O)c1ccccc1 assayed_target="HOP-62 NSCLC" result="101% (inactive)"

* * *

test system: M14 melanoma; test: NCI-60 one-dose screen, 48 h; settings: 10 µM unless noted
The panel holds about 83,000 compounds, 20% with a hit somewhere; the sample as a whole holds those more often. The source made the active and inactive calls. How the source made its calls: active means growth percent below 10; inactive means the rest.
Outcomes: TRUE (active), FALSE (inactive)

compound=c1ccc(N2c3nc4ccccc4cc3Sc3cc4ccccc4nc32)nc1 assayed_target="M14 melanoma" assigned_label=FALSE
compound=CCOc1cc(/C=C/C(=O)C(C(=O)/C=C/c2ccc(OC(=O)CNc3nnc(C)s3)c(OCC)c2)C(=O)CNc2nnc(C)s2)ccc1OC(=O)CNc1nnc(C)s1 assayed_target="M14 melanoma" assigned_label=TRUE
compound=c1ccc(COc2ccc(Nc3ncnc4c3cnn4-c3ccccc3)cc2)cc1 assayed_target="M14 melanoma" assigned_label=FALSE
compound=COc1cc(/C=C/C(=O)c2c(C)n([O-])c3ccc(Cl)cc3[n+]2=O)cc(OC)c1OC assayed_target="M14 melanoma" assigned_label=FALSE
compound="N#CSCC1CC(O)(c2ccccc2)C(c2ccccc2)C(c2ccc(Cl)cc2)O1 (centres undefined)" assayed_target="M14 melanoma" assigned_label=TRUE
compound=O=C(COc1ccc(/C=C2\Oc3ccc4ccccc4c3C2=O)cc1)c1ccc(Cl)cc1 assayed_target="M14 melanoma" assigned_label=FALSE
compound="Clc1ccc(C2c3ccccc3-c3nccn32)c(Cl)c1 (centres undefined)" assayed_target="M14 melanoma" assigned_label=FALSE
compound=O=C(/C=C/c1cccc(O)c1)c1cccc(-n2cc(-c3ccccc3)[nH]c2=O)c1 assayed_target="M14 melanoma" assigned_label=FALSE
compound=COC(=O)[C@H](Cc1cn(C)cn1)NC(=O)[C@@H](NC(=O)Nc1cc(C(F)(F)F)cc(C(F)(F)F)c1)C(C)C assayed_target="M14 melanoma" assigned_label=TRUE
